Could you please report measured inhibition for the items listed next?
Molecular target: Cyclooxygenase (Rattus norvegicus) (UniProt P35355+Q63921)
Assay: Inhibition of Prostaglandin G/H synthase in rat polymorphonuclear leukocytes
Assay type: cell-based
Set-up: concentration or dose not given beside the values
Conditions: concentration not given here

The examples below pair each entry with its known result.
compound="CC(C(=O)N(O)CCc1ccccc1)c1cccc(OCc2ccccc2)c1 (stereo not drawn)" endpoint_value="< 10%"
compound=O=C(/C=C/c1ccc(OCc2ccccc2)cc1)N(O)CCc1ccccc1 endpoint_value="< 10%"

Now let's try a different one.
Input line: May I ask what inhibition has been recorded for `COc1ccc(CCCC(=O)N(C)O)cc1` ?
Output line: < 10%

* * *

Test system: Mus musculus
Test: In vivo inhibition of mouse ear inflammation
Type: functional
Set-up: concentration or dose not given beside the values
readout name: Inhibition (%)
Give bare numbers, in %.

compound=COc1ccc(CCCC(=O)N(O)CCc2ccccc2)cc1 endpoint_value=64
compound="CCC(Cc1ccccc1)N(O)C(=O)Cc1ccc(OCc2ccccc2)cc1 (stereo unspecified)" endpoint_value=38
compound=O=C(Cc1ccc(OCc2ccccc2)cc1)N(O)CCc1ccccc1 endpoint_value=39
compound=COc1ccc(CCCC(=O)N(C)O)cc1 endpoint_value=67
compound=CN(O)C(=O)CCCCc1ccccc1 endpoint_value=77

Input line: May I ask what Inhibition has been recorded for `CN(O)C(=O)Cc1ccc(OCc2ccccc2)cc1` ?
Output line: 65
